- Test system: Plasmodium berghei KBG-173
- EXPERIMENT NOTES: Blood schizontocidal test, oral dosing, P. berghei in mice
- Format: in vivo, mouse
- ASSAY CONDITIONS: oral dose 64 mg/kg/day (total dose 192 mg/kg), days 3-5 postinfection
MEASURED METRIC: Mice surviving 60 days/Mice infected and treated

[
  {
    "COMPOUND": "O=C(C[C@H]1NCCC[C@@H]1O)Cn1cnc2ccccc2c1=O [Febrifugine, reference compound]",
    "RECORDED MEASUREMENT": "0/7"
  },
  {
    "COMPOUND": "O=C(CC1NCCC1O)Cn1cnc2ccncc2c1=O (stereo not shown) [Compound II]",
    "RECORDED MEASUREMENT": "7/7"
  },
  {
    "COMPOUND": "O=C(CC1NCCC1O)Cn1cnc2ccc(F)c(F)c2c1=O (stereo not shown) [Compound IV]",
    "RECORDED MEASUREMENT": "7/7"
  },
  {
    "COMPOUND": "CCN(CC)CCCC(C)Nc1ccnc2cc(Cl)ccc12 (stereo not shown) [Chloroquine, reference compound]",
    "RECORDED MEASUREMENT": "0/7"
  },
  {
    "COMPOUND": "O=C(CC1NCCC1O)Cn1cnc2cccnc2c1=O (stereo not shown) [Compound I]",
    "RECORDED MEASUREMENT": "7/7"
  },
  {
    "COMPOUND": "O=C(CC1NCCC1O)Cn1cnc2cccc(C(F)(F)F)c2c1=O (stereo not shown) [Compound V]",
    "RECORDED MEASUREMENT": "7/7"
  },
  {
    "COMPOUND": "O=C(CC1NCCC1O)Cn1cnc2cccc(F)c2c1=O (stereo not shown) [Compound III]",
    "RECORDED MEASUREMENT": "7/7"
  }
]
